Where these numbers come from: PubChem BioAssay

MEASURED ON: Pro-neuregulin-1, membrane-bound isoform (Homo sapiens) (UniProt Q02297)
Sequence (Q02297 whole entry, looked up, canonical isoform): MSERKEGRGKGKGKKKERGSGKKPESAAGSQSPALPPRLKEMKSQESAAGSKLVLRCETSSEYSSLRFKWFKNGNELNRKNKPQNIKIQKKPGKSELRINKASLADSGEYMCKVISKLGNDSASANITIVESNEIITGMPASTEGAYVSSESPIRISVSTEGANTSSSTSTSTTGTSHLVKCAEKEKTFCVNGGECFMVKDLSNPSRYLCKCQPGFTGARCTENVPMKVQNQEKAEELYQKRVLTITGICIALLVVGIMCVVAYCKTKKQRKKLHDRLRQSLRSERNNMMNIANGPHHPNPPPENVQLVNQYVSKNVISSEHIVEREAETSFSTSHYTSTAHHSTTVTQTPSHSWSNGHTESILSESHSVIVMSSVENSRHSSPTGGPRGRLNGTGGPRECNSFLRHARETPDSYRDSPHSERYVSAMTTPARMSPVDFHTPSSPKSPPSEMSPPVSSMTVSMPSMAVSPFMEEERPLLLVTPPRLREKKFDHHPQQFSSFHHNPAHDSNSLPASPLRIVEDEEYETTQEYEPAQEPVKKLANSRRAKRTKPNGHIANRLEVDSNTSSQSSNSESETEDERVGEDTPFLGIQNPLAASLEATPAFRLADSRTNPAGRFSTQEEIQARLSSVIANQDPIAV
PROTOCOL: NRG1 binders on small-molecule microarrays, primary screen, psychiatric disease protein project, biochemical, small-molecule microarray, fluorescence 635/667 (AID 1075);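 also: score combines 667 nm spot fluorescence with signal to noise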
CONDITION LABEL: NRG1 binding, 635 nm fluorescence, higher = more signal
PROPERTY: composite z-score
Numbers only.

CCOC(=O)NN=C1C[C@@H](O)[C@@H](O)[C@@H]2[C@@H]3C(=O)N(Cc4ccccc4)C(=O)[C@@H]3CC[C@H]12
-0.0283

// each compound listed below needs its composite z-score
1. CCOC(=O)[C@H](CC(C)C)NC(=O)CCC1CC(OC(=O)NCc2cccc3ccccc23)CC2(CCCC(COC(=O)NCC3CCCCC3)O2)O1 (some centres undefined)
2. COC(=O)[C@@H]1CC[C@H](C)[C@@H](c2ccc(C)cc2)N1C(=O)c1ccc(C=NO[C@H](C)c2cn([C@@H]3COC[C@H]3O)nn2)cc1
3. O=C(NN=C1C[C@@H](O)[C@@H](O)[C@@H]2[C@@H]3C(=O)N(C[C@@H]4CCCO4)C(=O)[C@@H]3CC[C@@H]12)OCc1ccccc1

result:
0.589
0.122
-0.802

---

PROTOCOL: MM1S cell viability effects, profiling panel, calcein-AM fluorescence, 48 h, basal (AID 1165);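 also: viability of MM1S multiple myeloma cells under basal unstimulated conditions; test concentration not given here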
CONDITION LABEL: higher = more signal
Classify by measured z-score: Yes if it is equal to or exceeds -0.1, No if it is smaller.

query: I'd appreciate it if you could say whether `C[C@@H](c1ccccc1)N1C(=O)[C@H]2[C@H]3[C@H](O)[C@H](O)CC(=NOCc4ccccc4)[C@H]3CC[C@H]2C1=O` has z-score at least equal to -0.1.
result: Yes

query: I'd appreciate it if you could say whether CCOC(=O)[C@H](CC(C)C)NC(=O)CCC1CC(OC(=O)NCCc2ccc(F)cc2)CC2(CCCC(COC(=O)NCC3CCCCC3)O2)O1 (some centres not stated) has z-score at least equal to -0.1.
result: No

query: I'd appreciate it if you could say whether `CC(C)=CCCC(C)=CCON=C1C[C@@H](O)[C@@H](O)[C@@H]2[C@@H]3C(=O)N(c4ccc(F)cc4F)C(=O)[C@@H]3CC[C@@H]12` has z-score at least equal to -0.1.
result: No

query: I'd appreciate it if you could say whether `CO[C@H]1COC(=O)[C@@H](C)COC(=O)[C@@H](OCc2ccccc2)C=C[C@@H]1C` has z-score at least equal to -0.1.
result: No

query: I'd appreciate it if you could say whether CCOC(=O)[C@H](CC(C)C)NC(=O)CCC1CC(OC(=O)NCc2cccc3ccccc23)CC2(CCCC(COC(=O)NCCCN3CCCC3=O)O2)O1 (some centres not stated) has z-score at least equal to -0.1.
result: Yes

query: I'd appreciate it if you could say whether `O=C1[C@H]2[C@H]3[C@H](O)[C@H](O)CC(=NOC[C@@H](O)COCc4ccco4)[C@H]3CC[C@H]2C(=O)N1c1ccc(F)cc1F` has z-score at least equal to -0.1.
result: Yes

query: I'd appreciate it if you could say whether `O=C1[C@H]2[C@H]3[C@H](O)[C@H](O)CC(=NOC[C@@H](O)COCc4ccco4)[C@@H]3CC[C@H]2C(=O)N1C[C@@H]1CCCO1` has z-score at least equal to -0.1.
result: Yes

---

Test system: Plasmodium falciparum Sir2 (PF13_0152, Sir2A)
PROTOCOL: pfSir2 binders on small-molecule microarrays, primary screen, biochemical, small-molecule microarray, 635 nm fluorescence (AID 1098);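 also: score merges spot fluorescence intensity with its signal-to-noise ratio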
CONDITION LABEL: small-molecule microarray binding, fluorescence 635 nm; higher = more signal
Classify by measured composite z-score: class 1 if it is equal to or exceeds 0.3, class 0 if it is smaller.

Past entries and their recorded results:
CCc1cc2c(nc1CC)CCN(CCC(C)=NO[C@H](C)c1cn([C@@H]3COC[C@H]3O)nn1)C2
class 1
CO[C@H]1COC(=O)[C@@H](C)COC(=O)[C@H](COCc2ccccc2)NC(=O)CC=C[C@H]1C
class 1
CC(C)[C@@H](OCc1ccccc1)[C@H](C)C=NOC[C@@H](O)COCc1ccco1
class 0
O=C1CCCC(C2=CCCCC2=O)C1 (stereo not drawn)
class 0
O=C(NN=C1C[C@@H](O)[C@@H](O)[C@@H]2[C@@H]3C(=O)N(C[C@@H]4CCCO4)C(=O)[C@@H]3CC[C@@H]12)OCc1ccccc1
class 1
COC(=O)[C@@H]1CC[C@H](C)[C@@H](c2ccc(C)cc2)N1C(=O)c1ccc(C=NO[C@@H]2O[C@H](COC(C)=O)[C@@H](OC(C)=O)[C@H](OC(C)=O)[C@H]2OC(C)=O)cc1
class 1
CO[C@H]1COC(=O)CC=C[C@@H](C)[C@H](NS(=O)(=O)c2ccc(C)cc2)COC(=O)CCC[C@@H]1C
class 1

query: I'd appreciate it if you could say whether `CC(=O)Nc1ccc([C@@H]2N[C@H](C(=O)O)CC[C@H]2C)cc1` has composite z-score at least equal to 0.3.
result: class 0

---

Could you please report measured z-score for the items listed next?
PROTOCOL: CREB reporter modulators under forskolin, primary screen, cell-based, PC12, CRE-LacZ reporter, forskolin-stimulated (AID 1146);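 also: PC12 cells with 6xCRE LacZ reporter stimulated by forskolin 10 µM; beta-galactosidase reporter signal reflecting CREB driven transcription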
CONDITION LABEL: luminescence, 4.5 h, higher = more signal, called active from +8 up or from −8 down
Numbers only.

See these solved cases before continuing.
C[C@@H](c1ccccc1)N1C(=O)[C@H]2[C@H]3[C@H](O)[C@H](O)CC(=NO[C@@H]4O[C@H](CO)[C@@H](O)[C@H](O)[C@H]4O)[C@@H]3CC[C@H]2C1=O
0.331
O=C(NN=C1C[C@@H](O)[C@@H](O)[C@@H]2[C@@H]3C(=O)N(C4CCCCC4)C(=O)[C@@H]3CC[C@@H]12)OCc1ccccc1
0.0171
CCOC(=O)[C@H](CC(C)C)NC(=O)CCC1CC(OC(=O)NCc2cccc3ccccc23)CC2(CCCC(COC(=O)NCCc3ccc(Cl)cc3)O2)O1 (stereo partly specified)
-1.17
CC(CCN1CCCc2nc(C)c(C)cc21)=NO[C@@H](C)c1cc(-c2c(C)cc(C)cc2C)no1
-0.559
COC(=O)[C@H](C)NC(=O)CCC1CC(OC(=O)NCCc2ccc(F)cc2)CC2(CCCC(COC(=O)NCc3cccc(C(F)(F)F)c3)O2)O1 (stereo partly specified)
0.144

query: Recorded z-score of `Cc1ccc(S(=O)(=O)N[C@H]2COC(=O)CC=C[C@H](C)[C@@H](NS(=O)(=O)c3ccc(C)cc3)COC(=O)CC=C[C@@H]2C)cc1` , please.
result: 0.556

---

PROTOCOL: Plasmodium falciparum growth inhibition, primary screen, strain 3D7, DAPI fluorescence, 100 nL (AID 1184);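 also: parasites grown inside human red blood cells in medium with human serum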
CONDITION LABEL: P. falciparum 3D7 growth, 3 d, higher = more signal
Classify by measured z-score: yes (1) if it is equal to or exceeds -1, no (0) if it is smaller.

Past entries and their recorded results:
COc1cccc([C@@H]2Oc3ccc(OC)cc3C(=O)[C@H]2O)c1
no (0)
CC(C)(C)N1C(=O)[C@H]2[C@H]3[C@H](O)[C@H](O)CC(=NOCc4ccccc4)[C@H]3CC[C@H]2C1=O
yes (1)
CC(C)=CCCC(C)=CCON=C1C[C@@H](O)[C@@H](O)[C@@H]2[C@@H]3C(=O)N(Cc4ccccc4)C(=O)[C@@H]3CC[C@@H]12
yes (1)

query: I'd appreciate it if you could say whether COC(=O)[C@H](C)NC(=O)CCC1CC(OC(=O)NCc2cccc3ccccc23)CC2(CCCC(COC(=O)NCC(c3ccccc3)c3ccccc3)O2)O1 (stereo partly drawn) has z-score at least equal to -1.
result: no (0)

query: I'd appreciate it if you could say whether CCOC(=O)[C@H](CC(C)C)NC(=O)CCC1CC(OC(=O)NCCc2ccc(F)cc2)CC2(CCCC(COC(=O)NCCc3ccccc3OC)O2)O1 (stereo partly drawn) has z-score at least equal to -1.
result: no (0)

query: I'd appreciate it if you could say whether CCOC(=O)[C@H](CC(C)C)NC(=O)CCC1CC(OC(=O)NCc2ccc3c(c2)OCO3)CC2(CCCC(COC(=O)NCCCN3CCCC3=O)O2)O1 (stereo partly drawn) has z-score at least equal to -1.
result: no (0)

query: I'd appreciate it if you could say whether CCOC(=O)[C@H](Cc1ccccc1)NC(=O)OC1CC(CCC2CC(CC)=NO2)OC2(CCCC(COC(=O)NCCC(C)C)O2)C1 (stereo partly drawn) has z-score at least equal to -1.
result: no (0)

query: I'd appreciate it if you could say whether `CCOC(=O)NN=C1C[C@@H](O)[C@@H](O)[C@@H]2[C@@H]3C(=O)N(c4ccc(F)cc4F)C(=O)[C@@H]3CC[C@@H]12` has z-score at least equal to -1.
result: yes (1)
